experimental.target: Orai1/STIM1 (Homo sapiens, UniProt Q96D31)
Sequence (Q96D31 whole entry): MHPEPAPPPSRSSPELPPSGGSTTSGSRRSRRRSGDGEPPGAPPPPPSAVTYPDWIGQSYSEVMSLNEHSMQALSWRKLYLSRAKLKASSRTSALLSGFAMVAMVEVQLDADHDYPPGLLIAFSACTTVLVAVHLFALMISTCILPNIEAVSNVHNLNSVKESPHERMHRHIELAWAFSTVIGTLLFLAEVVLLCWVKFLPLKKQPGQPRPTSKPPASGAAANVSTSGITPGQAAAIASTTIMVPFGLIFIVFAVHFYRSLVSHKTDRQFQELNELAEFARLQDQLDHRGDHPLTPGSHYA
test.name: Fluorescence-based assay of store-operated calcium entry in Orai1/STIM1 stable cells
conditions.used: HEK-293 cells stably expressing human STIM1 and Orai1; 50% inhibition of Peak-Basal fluorescence signal; read-out: Orai1/STIM1 (IC50, μmol)
observed.property: IC50

# chem.smiles, IC50
records = [
    ("CCc1nn(-c2nccs2)cc1-c1nnc(NC(=O)c2c(F)ccc(F)c2F)s1", "600 to 1200 nM"),
    ("Cc1nn(-c2cc(F)ccc2F)cc1-c1ccc(NC(=O)c2c(F)cccc2F)nc1", "< 600 nM"),
    ("O=C(Nc1cnc(-c2cn(-c3nccs3)nc2C2CC2)cn1)c1c(F)cccc1F", "> 1200 nM"),
]

Next item in the queue.
Query block: Identify the reported IC50 for the following entry. `Cc1nn(-c2nccs2)cc1-c1ccc(NC(=O)c2ccccc2OC(F)F)cc1F`
Result block: 600 to 1200 nM

###

experimental.target: Orai1/STIM1 (Homo sapiens, UniProt Q96D31)
test.name: Fluorescence-based assay of store-operated calcium entry in Orai1/STIM1 stable cells
conditions.used: HEK-293 cells stably expressing human STIM1 and Orai1; 50% inhibition of Peak-Basal fluorescence signal; read-out: Orai1/STIM1 (IC50, μmol)
Below: a set of entries, each annotated with reported IC50.

# chem.smiles, IC50
rows = [
    ("Cc1cccc(F)c1C(=O)Nc1ccc(-c2cn(-c3nccs3)nc2C)c(F)c1", "600 to 1200 nM"),
    ("CCc1nn(-c2nccs2)cc1-c1ccc(NC(=O)c2c(F)ccc(F)c2F)nc1", "< 600 nM"),
    ("CCc1nn(-c2nccs2)cc1-c1ccc(NC(=O)c2ccccc2F)cc1", "< 600 nM"),
    ("Cc1nn(-c2nccs2)cc1-c1cnc(NC(=O)c2c(F)cccc2F)cn1", "< 600 nM"),
    ("Cc1cnc(-n2cc(-c3ccc(NC(=O)c4c(F)cc(F)cc4F)nc3)c(C)n2)s1", "< 600 nM"),
]

Query block: Identify the reported IC50 for the following entry. `CCc1nn(-c2nccs2)cc1-c1ccc(NC(=O)c2c(F)cccc2F)cc1F`
Result block: < 600 nM

Query block: Identify the reported IC50 for the following entry. `O=C(Nc1cnc(-c2cn(-c3nccs3)nc2C2CC2)cn1)c1ccccc1F`
Result block: < 600 nM

Query block: Identify the reported IC50 for the following entry. `Cc1nn(-c2nccs2)cc1-c1ccc(NC(=O)c2cc(F)nc(F)c2)nc1`
Result block: < 600 nM

Query block: Identify the reported IC50 for the following entry. `CCc1nn(-c2nccs2)cc1-c1ccc(NC(=O)c2c(F)cccc2F)s1`
Result block: 600 to 1200 nM

Query block: Identify the reported IC50 for the following entry. `O=C(Nc1ccc(-c2cn(-c3nccs3)nc2C2CC2)c(F)c1)c1c(F)cccc1F`
Result block: > 1200 nM

Query block: Identify the reported IC50 for the following entry. `Cc1nn(-c2nccs2)cc1-c1ccc(NC(=O)c2cc(F)nc(F)c2)cc1F`
Result block: < 600 nM

###

Below: a set of entries, each annotated with reported IC50.
experimental.target: Orai1/STIM1 (Homo sapiens, UniProt Q96D31)
Construct: expressed in transfected cells
test.name: Fluorescence-based assay of store-operated calcium entry in Orai1/STIM1 stable cells
Type: cell-based
conditions.used: HEK-293 cells stably expressing human STIM1 and Orai1; 50% inhibition of Peak-Basal fluorescence signal; read-out: Orai1/STIM1 (IC50, μmol)

# count of solved cases: 3
# chem.smiles, IC50
measured = [
    ("O=C(Nc1ccc(-c2cn(-c3nccs3)nc2C2CC2)c(F)c1)c1c(F)cc(F)cc1F", "> 1200 nM"),
    ("Cc1cccc(F)c1C(=O)Nc1cnc(-c2cn(-c3nccs3)nc2C)cn1", "< 600 nM"),
    ("Cc1nn(-c2nccs2)cc1-c1ccc(NC(=O)c2c(F)ccc(F)c2F)nc1", "< 600 nM"),
]

Next item in the queue.
Query block: Identify the reported IC50 for the following entry. `O=C(Nc1ccc(-c2cn(-c3nccs3)nc2C(F)(F)F)c(F)c1)c1c(F)cccc1F`
Result block: > 1200 nM

###

experimental.target: Orai1/STIM1 (Homo sapiens)
test.name: Fluorescence-based assay of store-operated calcium entry in Orai1/STIM1 stable cells
conditions.used: HEK-293 cells stably expressing human STIM1 and Orai1; 50% inhibition of Peak-Basal fluorescence signal; read-out: Orai1/STIM1 (IC50, μmol)
pIC50: −log10 of the molar value.
Below: a set of entries, each annotated with reported pIC50.

# count of solved cases: 2
# chem.smiles, observed.measurement
records = [
    ("Cc1cnc(-n2cc(-c3ccc(NC(=O)c4c(F)ccc(F)c4F)nc3)c(C)n2)s1", "> 6.22"),
    ("Cc1nn(-c2cc(F)ccc2F)cc1-c1ccc(NC(=O)c2c(F)ccc(F)c2F)nc1", "> 6.22"),
]

Query block: Identify the reported pIC50 for the following entry. `Cc1nn(-c2nccs2)cc1-c1ccc(NC(=O)c2ccccc2F)cc1`
Result block: > 6.22

Query block: Identify the reported pIC50 for the following entry. `Cc1nn(-c2nccs2)cc1-c1cnc(NC(=O)c2c(F)cc(F)cc2F)cn1`
Result block: > 6.22

Query block: Identify the reported pIC50 for the following entry. `Cc1nn(-c2ccccc2F)cc1-c1ccc(NC(=O)c2ccccc2F)nc1`
Result block: 5.92 to 6.22

###

experimental.target: Orai1/STIM1 (Homo sapiens, UniProt Q96D31)
test.name: Fluorescence-based assay of store-operated calcium entry in Orai1/STIM1 stable cells
conditions.used: HEK-293 cells stably expressing human STIM1 and Orai1; 50% inhibition of Peak-Basal fluorescence signal; read-out: Orai1/STIM1 (IC50, μmol)
observed.property: IC50

# count of solved cases: 8
# molecule, IC50
records = [
    ("CCc1nn(-c2nccs2)cc1-c1ccc(NC(=O)c2c(F)cc(F)cc2F)cc1F [Example 33]", "> 1200 nM"),
    ("O=C(Nc1ccc(-c2cn(-c3nccs3)nc2C(F)(F)F)cn1)c1c(F)cccc1F [Example 52]", "< 600 nM"),
    ("Cc1nn(-c2nccs2)cc1-c1ccc(NC(=O)c2ccccc2OC(F)F)cc1 [Example 5]", "< 600 nM"),
    ("Cc1cccc(F)c1C(=O)Nc1ccc(-c2cn(-c3nccs3)nc2C)cc1 [Example 3]", "< 600 nM"),
    ("Cc1nn(-c2nccs2)cc1-c1ccc(NC(=O)c2c(F)ccc(F)c2F)cc1 [Example 4]", "< 600 nM"),
    ("CCc1nn(-c2nccs2)cc1-c1ccc(NC(=O)c2c(F)cc(F)cc2F)nc1 [Example 37]", "< 600 nM"),
    ("Cc1nn(-c2nccs2)cc1-c1ccc(NC(=O)c2c(F)cc(F)cc2F)nc1 [Example 21]", "< 600 nM"),
    ("CCc1nn(-c2nccs2)cc1-c1ccc(NC(=O)c2c(F)cccc2F)cc1 [Example 6]", "< 600 nM"),
]

Query block: Identify the reported IC50 for the following entry. Cc1nn(-c2ccccc2F)cc1-c1ccc(NC(=O)c2ccccc2OC(F)F)nc1 [Example 61]
Result block: > 1200 nM

Query block: Identify the reported IC50 for the following entry. Cc1nn(-c2nccs2)cc1-c1ccc(NC(=O)c2c(F)ccc(F)c2F)cc1F [Example 13]
Result block: < 600 nM

Query block: Identify the reported IC50 for the following entry. CCc1nn(-c2nccs2)cc1-c1cnc(NC(=O)c2c(F)cccc2F)cn1 [Example 38]
Result block: < 600 nM

Query block: Identify the reported IC50 for the following entry. CCc1nn(-c2nccs2)cc1-c1ccc(NC(=O)c2c(F)cccc2F)nc1 [Example 35]
Result block: < 600 nM

###

experimental.target: Orai1/STIM1 (Homo sapiens)
test.name: Fluorescence-based assay of store-operated calcium entry in Orai1/STIM1 stable cells
conditions.used: HEK-293 cells stably expressing human STIM1 and Orai1; 50% inhibition of Peak-Basal fluorescence signal; read-out: Orai1/STIM1 (IC50, μmol)
pIC50: −log10 of the molar value.
observed.property: pIC50

# count of solved cases: 5
# chem.smiles, pIC50
data = [
    ("Cc1cccc(F)c1C(=O)Nc1ccc(-c2cn(-c3nccs3)nc2C)s1", "5.92 to 6.22"),
    ("Cc1nn(-c2nccs2)cc1-c1ccc(NCc2c(F)cccc2F)cc1F", "> 6.22"),
    ("N#Cc1nn(-c2cc(F)ccc2F)cc1-c1ccc(NC(=O)c2c(F)cccc2F)nc1", "5.92 to 6.22"),
    ("Cc1nn(-c2nccs2)cc1-c1ccc(NC(=O)c2c(F)cccc2F)cc1", "> 6.22"),
    ("Cc1nn(-c2nccs2)cc1-c1ccc(NC(=O)c2ccc(F)c(F)c2F)nc1", "5.92 to 6.22"),
]

Query block: Identify the reported pIC50 for the following entry. `Cc1nn(-c2nccs2)cc1-c1cnc(NC(=O)c2c(F)ccc(F)c2F)s1`
Result block: 5.92 to 6.22

Query block: Identify the reported pIC50 for the following entry. `O=C(Nc1cnc(-c2cn(-c3nccs3)nc2C2CC2)cn1)c1c(F)cc(F)cc1F`
Result block: 5.92 to 6.22

Where do these numbers come from? They come from patent US9611263B2.
